- Test system: Ruminococcus gnavus DSM 108212
- protocol_notes: fold change of Tryptamine concentration vs plate DMSO controls (fold change (ratio)); higher = more amine produced, active = hit call of the paper (significant change in both replicates, either direction)
- condition_context: incubation time: 27 h, anaerobic, 37 °C
Where a name gives a salt, the structure may show the parent alone.
So I've got a bunch of compounds here, and I need their fold change of Tryptamine concentration values.
Enter a number only.

-- ask State fold change of Tryptamine concentration (Ruminococcus gnavus DSM 108212) of CCC(C)(CN(C)C)OC(=O)c1ccccc1 (stereo not drawn) [Amyleine hydrochloride] (20 µM) .
-- reply 0.945

-- ask State fold change of Tryptamine concentration (Ruminococcus gnavus DSM 108212) of CCCCCCOc1ccccc1C(N)=O [Exalamide] (20 µM) .
-- reply 0.95

-- ask State fold change of Tryptamine concentration (Ruminococcus gnavus DSM 108212) of Nc1ccc(S(=O)(=O)Nc2ccc(Cl)nn2)cc1 [Sulfachloropyridazine] (20 µM) .
-- reply 1.04

-- ask State fold change of Tryptamine concentration (Ruminococcus gnavus DSM 108212) of OC[C@@H](O)[C@@H](O[C@@H]1O[C@H](CO)[C@H](O)[C@H](O)[C@H]1O)[C@H](O)[C@@H](O)CO [Lactitol] (50 µM) .
-- reply 0.891

-- ask State fold change of Tryptamine concentration (Ruminococcus gnavus DSM 108212) of CC(=O)OC[C@H]1O[C@@H](n2ncc(=O)[nH]c2=O)[C@H](OC(C)=O)[C@@H]1OC(C)=O [Azaribine] (20 µM) .
-- reply 0.988

-- ask State fold change of Tryptamine concentration (Ruminococcus gnavus DSM 108212) of CN1C(=O)OC(C)(C)C1=O [Trimethadione] (20 µM) .
-- reply 0.948

-- ask State fold change of Tryptamine concentration (Ruminococcus gnavus DSM 108212) of Cc1cc(NS(=O)(=O)c2ccc(N)cc2)nc(C)n1 [Sulfisomidine] (20 µM) .
-- reply 1.04

-- ask State fold change of Tryptamine concentration (Ruminococcus gnavus DSM 108212) of CO[C@@]1(NC(=O)C2SC(=C(C(N)=O)C(=O)O)S2)C(=O)N2C(C(=O)O)=C(CSc3nnnn3C)CS[C@@H]21 (stereo partly drawn) [Cefotetan] (20 µM) .
-- reply 1.08

* * *

So I've got a bunch of compounds here, and I need their growth values.
- Tested on: Ruminococcus gnavus DSM 108212
- protocol_notes: growth (OD595) fold change vs plate DMSO controls (fold change (ratio)); higher = more growth
- condition_context: incubation time: 27 h, anaerobic, 37 °C
Counter-ions that a name gives are not always drawn.
Enter a number only.

-- ask Tell me growth reported for CNCCc1ccccn1 [Betahistine mesylate] (20 µM)
-- reply 1.25

-- ask Tell me growth reported for CNCCCN1c2ccccc2CCc2ccccc21 [Desipramine hydrochloride] (20 µM)
-- reply 1.12

-- ask Tell me growth reported for CC[C@H](C)C(=O)O[C@H]1C[C@@H](C)C=C2C=C[C@H](C)[C@H](CC[C@@H]3C[C@@H](O)CC(=O)O3)[C@H]21 [Lovastatin] (20 µM)
-- reply 1.16

-- ask Tell me growth reported for O=c1[nH]cnc2c1ncn2[C@@H]1O[C@H](CO)[C@@H](O)[C@H]1O [Inosine] (20 µM)
-- reply 0.919

* * *

- Test system: Ruminococcus gnavus DSM 108212
- protocol_notes: growth (OD595) fold change vs plate DMSO controls (fold change (ratio)); higher = more growth
- condition_context: incubation time: 27 h, anaerobic, 37 °C
Structures can show the parent of a compound that is named as a salt.
Think of 1 as a floor: if growth stands on it or above, it is Y; beneath it, N.

-- ask Dear colleague, could you confirm whether CC(=O)OCC(=O)[C@@]12OC3(CCCC3)O[C@@H]1C[C@H]1[C@@H]3CCC4=CC(=O)C=C[C@]4(C)[C@@]3(F)[C@@H](O)C[C@@]12C [Amcinonide] (20 µM) has growth at or above 1?
-- reply Y

-- ask Dear colleague, could you confirm whether OC[C@H]1O[C@H](O[C@H]2O[C@H](CO)[C@@H](O)[C@H](O)[C@H]2O)[C@H](O)[C@@H](O)[C@@H]1O [Trehalose dihydrate] (20 µM) has growth at or above 1?
-- reply Y

-- ask Dear colleague, could you confirm whether NC[C@H]1O[C@H](O[C@H]2[C@H](O[C@@H]3O[C@H](CO)[C@@H](O)[C@H]3O)[C@@H](O)[C@H](N)C[C@@H]2N)[C@H](N)[C@@H](O)[C@@H]1O [Ribostamycin sulfate salt] (20 µM) has growth at or above 1?
-- reply Y

-- ask Dear colleague, could you confirm whether CN1CCN(CCCN2c3ccccc3Sc3ccc(Cl)cc32)CC1 [Prochlorperazine dimaleate] (20 µM) has growth at or above 1?
-- reply N

-- ask Dear colleague, could you confirm whether CN(C)[C@@H]1C(=O)C(C(N)=O)=C(O)[C@@]2(O)C(=O)C3=C(O)c4c(O)ccc(Cl)c4[C@@H](O)[C@H]3C[C@@H]12 [Demeclocycline hydrochloride] (20 µM) has growth at or above 1?
-- reply N
